System: CTL clone 5
Method summary: GM-CSF release by CTL clone 5 on peptide-pulsed EBV B cells
Type: cell-based, human
Protocol conditions: 1510EBV cells, peptide 0.1 μg/ml for 90 min, 5 × 10^4 CTL clone 5
Measured endpoint: GM-CSF release by CTL clone 5, EXPT. 1 (1510EBV)

GM-CSF release by CTL clone 5, EXPT. 1 (1510EBV) reading for AVGPGGGAPR (listed as Homo sapiens) : 556

Item: AARASGPGGGAPR (listed as Homo sapiens) | GM-CSF release by CTL clone 5, EXPT. 1 (1510EBV): 844

# sequence ASGPGGGAPRG (listed as Homo sapiens) ; its GM-CSF release by CTL clone 5, EXPT. 1 (1510EBV) = <50

For this sequence ( TSGPGGGAPR (listed as Homo sapiens) ), measured GM-CSF release by CTL clone 5, EXPT. 1 (1510EBV) is 320

Value of GM-CSF release by CTL clone 5, EXPT. 1 (1510EBV) reported for the sequence GPGGGAPR (listed as Homo sapiens) is <50

Lookup result for ARASGPGGGAPR (listed as Homo sapiens) ; measured GM-CSF release by CTL clone 5, EXPT. 1 (1510EBV): 840

Entry RSGPGGGAPR (listed as Homo sapiens) , GM-CSF release by CTL clone 5, EXPT. 1 (1510EBV) reported as <50

Lookup result for ALGPGGGAPR (listed as Homo sapiens) ; measured GM-CSF release by CTL clone 5, EXPT. 1 (1510EBV): 200

Reported GM-CSF release by CTL clone 5, EXPT. 1 (1510EBV) for ASGPGGGAPH (listed as Homo sapiens) was <50

For reference, reported GM-CSF release by CTL clone 5, EXPT. 1 (1510EBV) for SGPGGGAPR (listed as Homo sapiens) [ESO9-54] stands at <50

GM-CSF release by CTL clone 5, EXPT. 1 (1510EBV) reported for this sequence AGAARASGPGGGAPR (listed as Homo sapiens) : 728

ASGPGGGAPK (listed as Homo sapiens) yielded GM-CSF release by CTL clone 5, EXPT. 1 (1510EBV) of <50

###

Tested on: CTL clone 5
Method summary: GM-CSF release by CTL clone 5 on peptide-pulsed EBV B cells
Type: cell-based, human
Protocol conditions: 1510EBV cells, peptide 0.1 μg/ml for 90 min, 5 × 10^4 CTL clone 5
Experimental: DNA transfection and GM-CSF assay were done as previously described (Wang, R. F., P. F. Robbins, Y. Kawakami, X. Q. Kang, and S. A. Rosenberg, 1995, J. Exp. Med. 181:799–804). Briefly, […] of DNA carrying a different fragment and 50 ng of the HLA-A31 DNA were mixed with 2 μl of lipofectamine in 100 μl of serum-free DMEM for 15–45 min. […] After 18–24 h incubation, 100 μl of supernatant was collected and GM-CSF was measured in a standard ELISA assay (R+D Systems, Minneapolis, Minn.). […]
Exam item: assign yes to entries whose GM-CSF release by CTL clone 5, EXPT. 1 (1510EBV) is below 700 and no to entries at or above 700. Note that a value of exactly 700 receives no.

Strictly below 700: is that where GM-CSF release by CTL clone 5, EXPT. 1 (1510EBV) of RASGPGGGAPR (listed as Homo sapiens) sits? no

# check: GM-CSF release by CTL clone 5, EXPT. 1 (1510EBV) < 700 for GAARASGPGGGAPR (listed as Homo sapiens) yes

Consider the sequence LSGPGGGAPR (listed as Homo sapiens) . Is its GM-CSF release by CTL clone 5, EXPT. 1 (1510EBV) strictly less than 700? yes

is_below(GM-CSF release by CTL clone 5, EXPT. 1 (1510EBV), 700) for VSGPGGGAPR (listed as Homo sapiens) ? no

Please state whether GM-CSF release by CTL clone 5, EXPT. 1 (1510EBV) is below 700 for ASGPGGGAPR (listed as Homo sapiens) [ESO10-53] no

Given the entry AIGPGGGAPR (listed as Homo sapiens) , would its reported GM-CSF release by CTL clone 5, EXPT. 1 (1510EBV) be below 700? yes

Problem: For the sequence SGPGGGAPRG (listed as Homo sapiens) , is GM-CSF release by CTL clone 5, EXPT. 1 (1510EBV) under 700? yes

Identify whether the sequence ATGPGGGAPR (listed as Homo sapiens) records GM-CSF release by CTL clone 5, EXPT. 1 (1510EBV) below 700. no
